- EXPERIMENTAL TARGET: human endothelin A receptor (Homo sapiens, UniProt P25101)
- Construct: expressed in transfected cells; host or cells: CHO-K1 (G-418 selected)
- RUN DESCRIPTION: In vitro ETA binding, attached cell assay, [125I]-ET-1 competition
- ASSAY SETUP: IC50 (nM) Run 4, Table 1; 97% pure atropisomers of Example 2; Run 4
MEASURED PROPERTY: IC50 (nM)

• Cc1onc(NS(=O)(=O)c2ccccc2-c2ccc(-c3ncco3)cc2CN(C)C(=O)CC(C)(C)C)c1C (racemic) [Racemate] = 0.1

---

- EXPERIMENTAL TARGET: human endothelin A receptor (Homo sapiens)
- Construct: expressed in transfected cells; host or cells: CHO-K1 (G-418 selected)
- RUN DESCRIPTION: In vitro ETA binding, attached cell assay, [125I]-ET-1 competition
- ASSAY SETUP: IC50 (nM) Run 3, Table 2; 99.2% pure atropisomers of Example 2; Run 3
MEASURED PROPERTY: IC50 (nM)

* Cc1onc(NS(=O)(=O)c2ccccc2-c2ccc(-c3ncco3)cc2CN(C)C(=O)CC(C)(C)C)c1C (racemic) [Racemate] | 0.4

---

- EXPERIMENTAL TARGET: human endothelin A receptor (Homo sapiens, UniProt P25101)
- Construct: expressed in transfected cells; host or cells: CHO-K1 (G-418 selected)
- RUN DESCRIPTION: In vitro ETA binding, attached cell assay, [125I]-ET-1 competition
- ASSAY SETUP: Table 2; 99.2% pure atropisomers of Example 2; Run 7; read-out: IC50 (nM) Run 7
Reported IC50 values for a set of molecules
MEASURED PROPERTY: IC50 (nM)

* Cc1onc(NS(=O)(=O)c2ccccc2-c2ccc(-c3ncco3)cc2CN(C)C(=O)CC(C)(C)C)c1C (single isomer, unassigned) [97% pure (+) dextrorotatory] | 0.34
* Cc1onc(NS(=O)(=O)c2ccccc2-c2ccc(-c3ncco3)cc2CN(C)C(=O)CC(C)(C)C)c1C (single isomer, unassigned) [97% pure (−) levorotatory] | 21

---

Reported IC50 values for a set of molecules
- EXPERIMENTAL TARGET: human endothelin A receptor (Homo sapiens, UniProt P25101)
- Construct: expressed in transfected cells; host or cells: CHO-K1 (G-418 selected)
- RUN DESCRIPTION: In vitro ETA binding, attached cell assay, [125I]-ET-1 competition
- ASSAY SETUP: Table 2; 99.2% pure atropisomers of Example 2; Run 6; read-out: IC50 (nM) Run 6
MEASURED PROPERTY: IC50 (nM)

• Cc1onc(NS(=O)(=O)c2ccccc2-c2ccc(-c3ncco3)cc2CN(C)C(=O)CC(C)(C)C)c1C (single isomer, unassigned) [97% pure (−) levorotatory] = 3.7
• Cc1onc(NS(=O)(=O)c2ccccc2-c2ccc(-c3ncco3)cc2CN(C)C(=O)CC(C)(C)C)c1C (single isomer, unassigned) [97% pure (+) dextrorotatory] = 0.38

---

- EXPERIMENTAL TARGET: human endothelin A receptor (Homo sapiens)
- Construct: expressed in transfected cells; host or cells: CHO-K1 (G-418 selected)
- RUN DESCRIPTION: In vitro ETA binding, attached cell assay, [125I]-ET-1 competition
- ASSAY SETUP: Table 2; 99.2% pure atropisomers of Example 2; Run 1; read-out: IC50 (nM) Run 1
Reported IC50 values for a set of compounds
MEASURED PROPERTY: IC50 (nM)

• Cc1onc(NS(=O)(=O)c2ccccc2-c2ccc(-c3ncco3)cc2CN(C)C(=O)CC(C)(C)C)c1C (single isomer, unassigned) [97% pure (+) dextrorotatory] = 0.002
• Cc1onc(NS(=O)(=O)c2ccccc2-c2ccc(-c3ncco3)cc2CN(C)C(=O)CC(C)(C)C)c1C (single isomer, unassigned) [97% pure (−) levorotatory] = 0.1

---

- EXPERIMENTAL TARGET: human endothelin A receptor (Homo sapiens)
- Construct: expressed in transfected cells; host or cells: CHO-K1 (G-418 selected)
- RUN DESCRIPTION: In vitro ETA binding, attached cell assay, [125I]-ET-1 competition
- ASSAY SETUP: Table 2; 99.2% pure atropisomers of Example 2; Run 9; read-out: IC50 (nM) Run 9
- Protocol: The isolated atropisomers of Example 2 were tested for in vitro ETA binding according to the following procedure: […] In the attached cell assay, culture media was aspirated from each well and the monolayers were washed with 75 μl of room temperature PBS (Mg^++, Ca^++ free). […] Data was analyzed with curve fitting software by Sigma plot. […]
Reported IC50 values for a set of molecules
MEASURED PROPERTY: IC50 (nM)

- Cc1onc(NS(=O)(=O)c2ccccc2-c2ccc(-c3ncco3)cc2CN(C)C(=O)CC(C)(C)C)c1C (single isomer, unassigned) [97% pure (−) levorotatory]: 19
- Cc1onc(NS(=O)(=O)c2ccccc2-c2ccc(-c3ncco3)cc2CN(C)C(=O)CC(C)(C)C)c1C (single isomer, unassigned) [97% pure (+) dextrorotatory]: 0.41

---

- EXPERIMENTAL TARGET: human endothelin A receptor (Homo sapiens, UniProt P25101)
- Construct: expressed in transfected cells; host or cells: CHO-K1 (G-418 selected)
- RUN DESCRIPTION: In vitro ETA binding, attached cell assay, [125I]-ET-1 competition
- ASSAY SETUP: Table 2; 99.2% pure atropisomers of Example 2; Run 3; read-out: IC50 (nM) Run 3
Reported IC50 values for a set of compounds
MEASURED PROPERTY: IC50 (nM)

• Cc1onc(NS(=O)(=O)c2ccccc2-c2ccc(-c3ncco3)cc2CN(C)C(=O)CC(C)(C)C)c1C (single isomer, unassigned) [97% pure (−) levorotatory] = 6
• Cc1onc(NS(=O)(=O)c2ccccc2-c2ccc(-c3ncco3)cc2CN(C)C(=O)CC(C)(C)C)c1C (single isomer, unassigned) [97% pure (+) dextrorotatory] = 0.7

---

Reported IC50 values for a set of compounds
- EXPERIMENTAL TARGET: human endothelin A receptor (Homo sapiens, UniProt P25101)
- Construct: expressed in transfected cells; host or cells: CHO-K1 (G-418 selected)
- Sequence (P25101 21-427): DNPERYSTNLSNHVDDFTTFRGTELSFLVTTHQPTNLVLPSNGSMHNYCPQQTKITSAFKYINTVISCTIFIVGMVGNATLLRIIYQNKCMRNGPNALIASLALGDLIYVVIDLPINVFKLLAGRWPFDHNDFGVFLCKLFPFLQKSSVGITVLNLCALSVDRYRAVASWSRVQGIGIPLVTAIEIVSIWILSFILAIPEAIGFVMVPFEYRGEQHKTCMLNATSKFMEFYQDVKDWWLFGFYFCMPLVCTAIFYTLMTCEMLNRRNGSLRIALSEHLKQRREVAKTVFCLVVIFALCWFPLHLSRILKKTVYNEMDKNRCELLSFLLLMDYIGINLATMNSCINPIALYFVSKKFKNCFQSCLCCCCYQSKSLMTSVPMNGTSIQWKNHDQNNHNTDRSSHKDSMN
- RUN DESCRIPTION: In vitro ETA binding, attached cell assay, [125I]-ET-1 competition
- ASSAY SETUP: Table 2; 99.2% pure atropisomers of Example 2; Run 8; read-out: IC50 (nM) Run 8
MEASURED PROPERTY: IC50 (nM)

- Cc1onc(NS(=O)(=O)c2ccccc2-c2ccc(-c3ncco3)cc2CN(C)C(=O)CC(C)(C)C)c1C (single isomer, unassigned) [97% pure (+) dextrorotatory]: 0.38
- Cc1onc(NS(=O)(=O)c2ccccc2-c2ccc(-c3ncco3)cc2CN(C)C(=O)CC(C)(C)C)c1C (single isomer, unassigned) [97% pure (−) levorotatory]: 14

---

- EXPERIMENTAL TARGET: human endothelin A receptor (Homo sapiens)
- Construct: expressed in transfected cells; host or cells: CHO-K1 (G-418 selected)
- Sequence (P25101 21-427): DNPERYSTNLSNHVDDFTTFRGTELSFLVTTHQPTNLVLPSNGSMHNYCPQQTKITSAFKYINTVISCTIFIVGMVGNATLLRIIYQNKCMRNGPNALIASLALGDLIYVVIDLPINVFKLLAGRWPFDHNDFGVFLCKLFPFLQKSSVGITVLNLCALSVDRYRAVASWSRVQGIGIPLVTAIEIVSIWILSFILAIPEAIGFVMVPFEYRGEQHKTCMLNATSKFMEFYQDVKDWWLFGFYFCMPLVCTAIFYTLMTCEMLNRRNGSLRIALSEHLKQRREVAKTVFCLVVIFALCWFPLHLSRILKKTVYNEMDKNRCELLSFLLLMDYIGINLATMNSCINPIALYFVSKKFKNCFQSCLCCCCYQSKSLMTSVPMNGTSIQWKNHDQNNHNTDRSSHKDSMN
- RUN DESCRIPTION: In vitro ETA binding, attached cell assay, [125I]-ET-1 competition
- ASSAY SETUP: IC50 (nM) Run 9, Table 2; 99.2% pure atropisomers of Example 2; Run 9
MEASURED PROPERTY: IC50 (nM)

- Cc1onc(NS(=O)(=O)c2ccccc2-c2ccc(-c3ncco3)cc2CN(C)C(=O)CC(C)(C)C)c1C (racemic) [Racemate]: 0.27
